Molecular target: T1, human Aβ40 fibrils (human)
T1 construct: Fibrillar aggregate of the 40-residue peptide prepared in vitro; also called Fibrillar Aβ40; Aβ40 amyloid fibrils
T1 sequence (peptide, as listed by the source): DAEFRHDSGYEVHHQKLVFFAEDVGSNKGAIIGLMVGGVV
Assay: BIAcore, fibrils immobilized, antibody injected
koff values, listed per item
Kindly answer with a numeric value in s⁻¹, unit omitted.

BINDER	koff / s⁻¹
antibody 1.14 (antibody, V domains shown, Human anti-Aβ antibody) VH: EVQLVESGGGLVQPGGSLRLSCAASGFTFSSYSMNWVRQAPGKGLEWVSYISRSSSAIYYADSVKGRFTISRDNAKNSLYLQMNSLRDEDTAVYYCARETTVTTRFYYYYYGVDVWGQGTTVTVSS VL: DIQMTQSPSSVSASVGDRVTITCRASQGISSWLAWFQQKPGKAPKLLIYAASSLQSGVPSRFSGSGSGTDFTLTISSLQPEDFATYYCQQANSFPRTFGQGTKVEIK	0.0013
antibody 7.2 (antibody, V domains shown, Human anti-Aβ antibody; also called Ab 7.2) VH: QVQLVESGGGVVQPGRSLRLSCAASGFTFSSYGMHWVRQAPGKGLEWVAVIWYDGSNKYYADSVKGRFTISRDISKNTLYLQMNSLRAEDTAVYYCARSGPPLYSGIYYYYGMDVWGQGTTVTVSS VL: SSELTQDPAVSVALGQTVRITCQGDSLRAYYAHWYQQKPGQAPVLVIYGKNNRPSGIPDRFSGSNSGNTASLTITGAQAEDEADYYCNSRDSSGNHVVFGGGTKLTVL	0.00014
antibody 6.18 (antibody, V domains shown, Human anti-Aβ antibody; also called Ab 6.18) VH: EVQLVESGGGLVQPGGSLRLSCAASGFTFSSYSMNWVRQAPGKGLEWLSYISSRSSTIYYADSVKGRFTISRDNAKNSLYLQMNSLRDEDTAVYYCARERTGTTRYYYYYYGMDVWGQGTTVTVSS VL: DIQMTQSPSSVSASVGDRVTITCRASQGISSWLAWSQQKPGKAPKLLIYAASSLQSGVPSRFSGSGSGTDFTLTISSLQPEDFATYYCQQANSFPRTFGQGTKVEIK	0.004

Here is another binder to look at.
Fill in: koff of antibody 7.11 (antibody, V domains shown, Human anti-Aβ antibody; also called Ab 7.11) VH: QLQLQESGPGLVKPSETLSLTCTVSGGSISSSRYYWGWIRQPPGKGLEWIGSISYRGNTYYYPSLKSRVTISVDTSKNQFSLKLNSVTAADTAVYYCARRTYSSGWSYFDYWGQGTLVTVSS VL: SYELTQPYSMSVATAQMARITCGGNNIGSKAVHWYQQKPGQDPVLVIYSDSNRPSGIPERFSGSNPGNTATLTISRIEAGDEANYYCQVWDSSSDHWVFGGGTKLTVL is ___
0.0008

// provenance: patent US20110044986A1
